Test system: SF-268
assay: Growth inhibition of human SF268 cells after 48 hrs by sulforhodamine B assay
Format: functional
applied-conditions: SF-268, 48 h
experimental-readout: GI50 (µM)
Express your answer in µM, writing the number without its unit.

Result for "O=C(c1ccco1)N1CCN(C(=O)c2ccco2)C1=S" , tested on SF-268, GI50: 2.7

The molecule "O=C(c1ccc(Cl)cc1Cl)N1CCN(C(=O)c2ccc(Cl)cc2Cl)C1=S" , tested on SF-268, showed GI50 of 24.5

The molecule "N#C/C(=C\N1CCN(C(=O)c2ccco2)C1=S)C(N)=O" on SF-268: GI50 was 11.7

Assay SF-268, sample "N#C/C(=C\N1CCN(C(=O)c2ccco2)C1=S)C(=O)Nc1ccc(Cl)cc1" , GI50 read: 17.8

Noted GI50 for "N#C/C(=C\N1CCN(C(=O)c2ccco2)C1=S)C(=O)c1ccccc1" , tested on SF-268: 31.2

The reported SF-268 GI50 of "N#CC(C#N)=CN1CCN(C(=O)c2ccccc2)C1=S" is 21.3

* * *

System: MT4
assay: Antiproliferative activity against human MT4 cells assessed as reduction of growth by MTT assay
Type: functional, cell-based
experimental-readout: IC50 (µM)
Express it in µM; write the number only.

Given the compound "O=C(c1cccs1)N1CCN(C(=O)c2cccs2)C1=S" and test system MT4, the measured IC50 is 11

Reported MT4 IC50 for item "O=C(c1ccco1)N1CCN(C(=O)c2ccco2)C1=S" was 7.4

Entry "O=C(c1ccc(Cl)c([N+](=O)[O-])c1)N1CCN(C(=O)c2ccc(Cl)c([N+](=O)[O-])c2)C1=S" ; assay system MT4; IC50 recorded at 11

Value sought: IC50, system MT4, item "COc1cc(C(=O)N2CCN(C=O)C2=S)cc(OC)c1OC" . Result: 13

Query "O=C(c1cccc2ccccc12)N1CCN(C(=O)c2cccc3ccccc23)C1=S" on MT4; IC50 returned: 13

Form field IC50 for item "N#CC(C#N)=CN1CCN(C(=O)c2ccccc2)C1=S" on MT4: 11

Hey, MT4 data for "O=C(c1cc(Cl)cc(Cl)c1)N1CCN(C(=O)c2cc(Cl)cc(Cl)c2)C1=S" : IC50 came out at 13

* * *

Test system: SK-MEL-28
assay: Growth inhibition of human SK-MEL-28 cells after 48 hrs by sulforhodamine B assay
Format: functional
applied-conditions: SK-MEL-28, 48 h
experimental-readout: GI50 (µM)
Supply the numeric figure in µM, leaving out any unit text.

Measured GI50 of "O=CN1CCN(C(=O)c2ccco2)C1=S" : 26.2

// GI50 lookup, compound = "N#C/C(=C\N1CCN(C(=O)c2ccco2)C1=S)C(=O)c1ccccc1" , result: 28

Quick note, GI50 for "O=C(c1ccc(Cl)cc1Cl)N1CCN(C(=O)c2ccc(Cl)cc2Cl)C1=S" landed at 18.4

Memo: "O=C(c1cc(Cl)cc(Cl)c1)N1CCN(C(=O)c2cc(Cl)cc(Cl)c2)C1=S" , reported GI50: 12.2
